Assay: Cytotoxicity against human HepG2 cells assessed as non-toxic concentration incubated for 72 hrs by MTS assay
Type: cell-based
Conditions: read-out: MNCC

molecule	MNTC at 72 h
CC(C)(C)OC(=O)N1CCCC(CNCCOc2cccc3c2ccn3S(=O)(=O)c2ccccc2)C1 (stereo not drawn)	≤ 1000 nM
O=S(=O)(c1ccccc1)n1ccc2c(OCCNCc3ccccc3)cccc21	≤ 10000 nM
O=S(=O)(c1ccccc1)n1ccc2c(OCCNCC3CCCCC3)cccc21	≤ 1000 nM

---

Target: Cholinesterase (Equus caballus, UniProt P81908)
Sequence (P81908 whole entry): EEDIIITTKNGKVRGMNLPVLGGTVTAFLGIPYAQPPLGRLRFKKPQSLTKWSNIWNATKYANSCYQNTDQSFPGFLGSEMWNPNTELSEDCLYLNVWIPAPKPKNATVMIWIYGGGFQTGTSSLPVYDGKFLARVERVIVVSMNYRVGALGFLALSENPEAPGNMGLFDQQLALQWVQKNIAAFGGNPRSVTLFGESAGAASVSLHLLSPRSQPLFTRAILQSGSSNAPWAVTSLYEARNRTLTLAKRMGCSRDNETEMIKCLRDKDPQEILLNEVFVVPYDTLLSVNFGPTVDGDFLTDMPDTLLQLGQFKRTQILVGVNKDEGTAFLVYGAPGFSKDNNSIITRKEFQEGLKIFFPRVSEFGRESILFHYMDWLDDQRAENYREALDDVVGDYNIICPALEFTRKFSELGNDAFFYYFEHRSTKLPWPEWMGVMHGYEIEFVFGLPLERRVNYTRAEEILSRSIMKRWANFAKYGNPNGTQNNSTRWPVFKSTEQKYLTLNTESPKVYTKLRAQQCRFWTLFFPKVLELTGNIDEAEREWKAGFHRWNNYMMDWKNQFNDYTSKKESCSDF
Test: Inhibition of equine serum BuChE using BTC as substrate preincubated with enzyme for 5 mins followed by substrate addition for 5 mins by Ellman's method
pIC50: −log10 of the molar value.
Decision: pIC50 >= 6 yields met, all other cases yield not met.

molecule	group
CC(=O)Nc1ccc(CNCCOc2cccc3c2ccn3S(=O)(=O)c2ccccc2)cc1	not met
CC(C)(C)OC(=O)N1CCCC(CNCCOc2cccc3c2ccn3Cc2ccccc2)C1 (stereo not given)	met
O=[N+]([O-])c1ccc(CNCCOc2cccc3c2ccn3S(=O)(=O)c2ccccc2)cc1	not met
CC(C)(C)OC(=O)N1CCCC(CNCCOc2cccc3c2ccn3S(=O)(=O)c2ccccc2)C1 (stereo not given)	met
COc1cccc(CNCCOc2cccc3c2ccn3S(=O)(=O)c2ccccc2)c1	not met
O=S(=O)(c1cccc2ccccc12)n1ccc2c(OCCNCc3ccccc3)cccc21	met
O=S(=O)(c1ccccc1)n1ccc2c(OCCNCC3CCCCC3)cccc21	met
O=c1[nH]c2c(OCCNCc3ccccc3)cccc2n1Cc1ccccc1	not met
O=S(=O)(c1ccccc1)n1ccc2c(OCCNCc3cccc(C(F)(F)F)c3)cccc21	not met

---

Assay: Tmax in CD-1 mouse plasma at 30 mg/kg, po measured for 480 mins by LC-ESI-MS/MS analysis
Format: ADME, organism-based
observed property: Tmax (h)

smiles text	endpoint unit	reading
O=S(=O)(c1ccccc1)n1ccc2c(OCCNCC3CCCCC3)cccc21	h	1

---

Assay: Initial plasma concentration in CD-1 mouse at 3 mg/kg, iv by LC-ESI-MS/MS analysis
Assay type: ADME, organism-based

smiles text	C0 (ng/mL)
O=S(=O)(c1ccccc1)n1ccc2c(OCCNCC3CCCCC3)cccc21	176

---

Target: Cholinesterase (Equus caballus, UniProt P81908)
Assay: Inhibition of equine serum BuChE using BTC as substrate preincubated with enzyme for 5 mins followed by substrate addition for 5 mins by Ellman's method
Mark class 1 for IC50 under 900 nM, class 0 if at or over.

smiles text	group
O=S(=O)(c1ccccc1)n1ccc2c(OCCNCc3ccccn3)cccc21	class 0
c1ccc(CNCCOc2cccc3c2CCN3Cc2ccccc2)cc1	class 0
CC(=O)Oc1ccc(CNCCOc2cccc3c2CCN3S(=O)(=O)c2ccccc2)cc1	class 1
Cc1cccc(CNCCOc2cccc3c2[nH]c(=O)n3Cc2ccccc2)c1	class 0
c1ccc(CNCCOc2cccc3c2ccn3Cc2ccccc2)cc1	class 1

---

Test: Half life in CD-1 mouse brain at 3 mg/kg, iv measured for 480 mins by LC-ESI-MS/MS analysis
Type: ADME, organism-based

smiles text	half-life (h)
O=S(=O)(c1ccccc1)n1ccc2c(OCCNCC3CCCCC3)cccc21	2.97

---

Target: Cholinesterase (Equus caballus)
Experiment: Inhibition of equine serum BuChE using BTC as substrate preincubated with enzyme for 5 mins followed by substrate addition for 5 mins by Ellman's method
pIC50: −log10 of the molar value.
Each record here notes measured pIC50.
observed property: pIC50

compound	observed property	reading
CCOc1cccc(CNCCOc2cccc3c2ccn3S(=O)(=O)c2ccccc2)c1	pIC50	5.62
O=S(=O)(c1ccccc1)N1CCc2c(OCCNCc3ccccc3)cccc21	pIC50	5.88
CC(C)(C)OC(=O)N1CCCC(CNCCOc2cccc3c2CC(=O)N3Cc2ccccc2)C1 (stereo not drawn)	pIC50	5.96

---

Test: Tmax in CD-1 mouse brain at 30 mg/kg, po measured for 480 mins by LC-ESI-MS/MS analysis
Assay type: ADME, organism-based

smiles text	Tmax
O=S(=O)(c1ccccc1)n1ccc2c(OCCNCC3CCCCC3)cccc21	1 h

---

pIC50: −log10 of the molar value.
Endpoint: pIC50. System: Acetylcholinesterase (Electrophorus electricus). Items follow.
Sequence (O42275 whole entry): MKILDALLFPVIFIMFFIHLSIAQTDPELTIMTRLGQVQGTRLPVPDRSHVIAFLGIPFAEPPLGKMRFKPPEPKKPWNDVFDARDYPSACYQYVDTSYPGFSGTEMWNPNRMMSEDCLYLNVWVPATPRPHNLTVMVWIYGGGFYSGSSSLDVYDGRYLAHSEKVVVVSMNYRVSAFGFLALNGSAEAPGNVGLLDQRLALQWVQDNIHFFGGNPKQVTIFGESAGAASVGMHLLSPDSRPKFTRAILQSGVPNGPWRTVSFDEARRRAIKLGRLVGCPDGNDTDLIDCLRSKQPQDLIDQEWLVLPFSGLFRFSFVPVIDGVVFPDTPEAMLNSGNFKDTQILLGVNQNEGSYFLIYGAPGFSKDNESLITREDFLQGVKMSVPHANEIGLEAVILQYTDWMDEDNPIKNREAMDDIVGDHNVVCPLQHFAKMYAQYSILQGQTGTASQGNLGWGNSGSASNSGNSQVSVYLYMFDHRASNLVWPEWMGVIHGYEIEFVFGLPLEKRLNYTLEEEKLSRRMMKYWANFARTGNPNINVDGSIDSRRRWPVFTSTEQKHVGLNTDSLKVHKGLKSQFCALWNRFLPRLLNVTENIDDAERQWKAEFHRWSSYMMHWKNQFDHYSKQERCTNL

smiles text	pIC50
Cc1cccc(CNCCOc2cccc3c2CC(=O)N3Cc2ccccc2)c1	5.89
O=c1[nH]c2c(OCCNCc3ccccc3)cccc2n1Cc1ccccc1	5.97
Cc1cccc(CNCCOc2cccc3c2[nH]c(=O)n3Cc2ccccc2)c1	5.75
O=C1Cc2c(OCCNCc3ccccc3)cccc2N1Cc1ccccc1	5.77

---

Assay: Cmax in CD-1 mouse brain at 30 mg/kg, po measured for 480 mins by LC-ESI-MS/MS analysis
Format: ADME, organism-based
Set-up: route oral, dose 30 mg/kg, time 480 min

smiles text	Cmax
O=S(=O)(c1ccccc1)n1ccc2c(OCCNCC3CCCCC3)cccc21	2800 ng/mL

---

Target: Amyloid-beta precursor protein (Homo sapiens) (UniProt P05067)
Sequence (P05067 whole entry): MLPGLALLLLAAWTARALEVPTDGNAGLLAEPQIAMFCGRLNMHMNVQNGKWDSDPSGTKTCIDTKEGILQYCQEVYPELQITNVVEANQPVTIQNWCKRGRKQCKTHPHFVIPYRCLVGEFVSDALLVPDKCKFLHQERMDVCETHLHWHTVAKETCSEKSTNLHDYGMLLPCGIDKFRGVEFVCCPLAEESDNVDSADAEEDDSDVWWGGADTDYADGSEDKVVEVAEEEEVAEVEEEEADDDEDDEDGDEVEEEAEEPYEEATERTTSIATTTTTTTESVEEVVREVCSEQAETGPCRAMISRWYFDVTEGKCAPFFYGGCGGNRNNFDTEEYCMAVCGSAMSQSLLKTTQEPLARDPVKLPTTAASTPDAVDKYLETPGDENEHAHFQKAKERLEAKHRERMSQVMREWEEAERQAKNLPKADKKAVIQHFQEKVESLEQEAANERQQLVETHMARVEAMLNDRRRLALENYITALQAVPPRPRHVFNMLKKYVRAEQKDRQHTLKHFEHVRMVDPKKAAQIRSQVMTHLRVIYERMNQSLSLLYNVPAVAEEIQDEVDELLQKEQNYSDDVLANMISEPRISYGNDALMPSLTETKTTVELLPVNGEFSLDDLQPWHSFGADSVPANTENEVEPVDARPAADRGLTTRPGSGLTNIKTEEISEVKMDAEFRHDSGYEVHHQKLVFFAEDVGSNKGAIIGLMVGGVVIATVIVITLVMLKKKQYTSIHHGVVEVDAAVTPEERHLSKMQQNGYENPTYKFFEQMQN
Test: Inhibition of amyloid beta (1 to 42) (unknown origin) self aggregation at 10 uM incubated for 24 to 48 hrs by Thioflavin-T based fluorometric assay
Conditions: time lower […], time upper 48.0 hrs
Listing: inhibition of selected compounds

compound	comparison sign	inhibition [%]
O=S(=O)(c1ccccc1)n1ccc2c(OCCNCC3CCCNC3)cccc21 (centres undefined)	=	27.3
CN(CCOc1cccc2c1ccn2S(=O)(=O)c1ccccc1)Cc1ccccc1	<	20
O=S(=O)(c1ccccc1)n1ccc2c(OCCNCc3ccc4c(c3)OCCO4)cccc21	<	20
O=S(=O)(c1ccccc1)n1ccc2c(N3CCN(Cc4ccccc4)CC3)cccc21	<	20
CC(C)(C)OC(=O)N1CCCC(CNCCOc2cccc3c2CCN3Cc2ccccc2)C1 (centres undefined)	=	79.7
CC(C)(C)OC(=O)N1CCCC(CNCCOc2cccc3c2ccn3Cc2ccccc2)C1 (centres undefined)	=	79.4
COc1ccc(CNCCOc2cccc3c2ccn3S(=O)(=O)c2ccccc2)cc1	=	54.2
O=S(=O)(c1ccccc1)n1ccc2c(OCCNCc3cccc(C(F)(F)F)c3)cccc21	<	20
COc1cccc(CNCCOc2cccc3c2ccn3S(=O)(=O)c2ccccc2)c1	=	27.6
CN(C)c1ccc(CNCCOc2cccc3c2ccn3S(=O)(=O)c2ccccc2)cc1	<	20
Cc1cccc(CNCCOc2cccc3c2[nH]c(=O)n3Cc2ccccc2)c1	=	64.3
c1ccc(CNCCOc2cccc3c2ccn3Cc2ccccc2)cc1	=	71.3
CCOc1ccc(CNCCOc2cccc3c2ccn3S(=O)(=O)c2ccccc2)cc1	<	20
CN(C)c1cccc(CNCCOc2cccc3c2ccn3S(=O)(=O)c2ccccc2)c1	<	20
Cc1cccc(CNCCOc2cccc3c2CCN3Cc2ccccc2)c1	=	72.6
CCOc1cccc(CNCCOc2cccc3c2ccn3S(=O)(=O)c2ccccc2)c1	<	20
c1ccc(CNCCOc2cccc3c2CCN3Cc2ccccc2)cc1	=	72.5
CC(=O)Oc1ccc(CNCCOc2cccc3c2CCN3S(=O)(=O)c2ccccc2)cc1	<	20
O=S(=O)(c1ccccc1)n1ccc2c(OCCNCC3CC3)cccc21	<	20
Cc1cccc(CNCCOc2cccc3c2CCN3S(=O)(=O)c2ccccc2)c1	<	20
COC(=O)c1ccc(CNCCOc2cccc3c2ccn3S(=O)(=O)c2ccccc2)cc1	<	20
CC(=O)Oc1ccc(CNCCOc2cccc3c2ccn3S(=O)(=O)c2cccc3ccccc23)cc1	<	20
Cc1cccc(CNCCOc2cccc3c2CC(=O)N3Cc2ccccc2)c1	=	58.5
O=[N+]([O-])c1ccc(CNCCOc2cccc3c2ccn3S(=O)(=O)c2ccccc2)cc1	=	35.1
Cc1cccc(CNCCOc2cccc3c2ccn3S(=O)(=O)c2cccc3ccccc23)c1	=	23.6
O=S(=O)(c1ccccc1)n1ccc2c(OCCNCc3ccc(Cl)cc3)cccc21	<	20
CC(C)(C)OC(=O)N1CCCC(CNCCOc2cccc3c2[nH]c(=O)n3Cc2ccccc2)C1 (centres undefined)	=	43.9
CC(C)(C)OC(=O)N1CCCC(CNCCOc2cccc3c2CC(=O)N3Cc2ccccc2)C1 (centres undefined)	=	65.2
O=S(=O)(c1ccccc1)n1ccc2c(OCCNCc3ccc(F)cc3)cccc21	=	40.5
O=S(=O)(c1ccccc1)n1ccc2c(OCCNCc3cccc(Cl)c3)cccc21	<	20
O=S(=O)(c1ccccc1)n1ccc2c(OCCNCc3ccccn3)cccc21	<	20
Cc1ccc(CNCCOc2cccc3c2ccn3S(=O)(=O)c2ccccc2)o1	<	20
COc1ccc(CNCCOc2cccc3c2ccn3S(=O)(=O)c2ccccc2)cc1OC	=	36.8
O=S(=O)(c1ccccc1)n1ccc2c(OCCNCc3ccncc3)cccc21	<	20
CC(C)(C)OC(=O)N1CCC(CNCCOc2cccc3c2ccn3S(=O)(=O)c2ccccc2)CC1	=	69.7
CC(=O)Nc1ccc(CNCCOc2cccc3c2ccn3S(=O)(=O)c2ccccc2)cc1	<	20
O=C1Cc2c(OCCNCc3ccccc3)cccc2N1Cc1ccccc1	=	42.4
CNCCOc1cccc2c1ccn2S(=O)(=O)c1ccccc1	<	20
O=c1[nH]c2c(OCCNCc3ccccc3)cccc2n1Cc1ccccc1	=	32.9

---

Biological target: Cholinesterase (Homo sapiens, UniProt P06276)
Sequence (P06276 whole entry): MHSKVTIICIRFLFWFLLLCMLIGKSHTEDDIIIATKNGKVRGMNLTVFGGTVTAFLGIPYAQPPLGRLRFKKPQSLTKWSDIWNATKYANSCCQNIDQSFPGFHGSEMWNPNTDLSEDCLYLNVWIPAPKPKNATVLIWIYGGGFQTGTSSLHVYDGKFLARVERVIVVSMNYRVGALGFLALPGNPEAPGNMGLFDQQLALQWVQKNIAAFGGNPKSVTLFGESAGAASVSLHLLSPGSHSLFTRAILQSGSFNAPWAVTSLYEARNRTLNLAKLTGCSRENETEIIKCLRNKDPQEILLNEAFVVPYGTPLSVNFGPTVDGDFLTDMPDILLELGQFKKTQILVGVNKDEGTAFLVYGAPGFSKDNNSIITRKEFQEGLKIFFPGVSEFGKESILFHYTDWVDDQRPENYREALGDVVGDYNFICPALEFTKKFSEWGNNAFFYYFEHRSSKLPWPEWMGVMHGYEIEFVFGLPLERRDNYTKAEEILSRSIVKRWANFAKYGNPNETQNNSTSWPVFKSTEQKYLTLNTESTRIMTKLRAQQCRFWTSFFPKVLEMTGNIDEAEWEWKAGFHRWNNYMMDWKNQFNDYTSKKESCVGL
Experiment: Inhibition of BuChE in human plasma using BTC as substrate at 10 uM preincubated with enzyme for 5 mins followed by substrate addition for 5 mins by Ellman's method relative to control
Assay type: cell-free
Conditions: time 10.0 min
observed property: inhibition

molecule	observed property	reading
O=S(=O)(c1ccccc1)n1ccc2c(OCCNCC3CC3)cccc21	inhibition	< 50%
Cc1cccc(CNCCOc2cccc3c2[nH]c(=O)n3Cc2ccccc2)c1	inhibition	< 50%
COc1ccc(CNCCOc2cccc3c2ccn3S(=O)(=O)c2ccccc2)cc1	inhibition	< 50%
CC(C)(C)OC(=O)N1CCCC(CNCCOc2cccc3c2[nH]c(=O)n3Cc2ccccc2)C1 (configuration not stated)	inhibition	< 50%
O=S(=O)(c1ccccc1)n1ccc2c(OCCNCC3CCCNC3)cccc21 (configuration not stated)	inhibition	< 50%
Cc1ccc(CNCCOc2cccc3c2ccn3S(=O)(=O)c2ccccc2)o1	inhibition	< 50%
CNCCOc1cccc2c1ccn2S(=O)(=O)c1ccccc1	inhibition	< 50%
O=S(=O)(c1ccccc1)n1ccc2c(OCCNCc3cccc(Cl)c3)cccc21	inhibition	> 50%
COc1ccc(NS(=O)(=O)c2ccc(I)cc2)cc1N1CCN(C)CC1	inhibition	< 50%
Cc1cccc(CNCCOc2cccc3c2ccn3Cc2ccccc2)c1	inhibition	< 50%
CN(CCOc1cccc2c1ccn2S(=O)(=O)c1ccccc1)Cc1ccccc1	inhibition	< 50%
CC(C)(C)OC(=O)N1CCCC(CNCCOc2cccc3c2ccn3Cc2ccccc2)C1 (configuration not stated)	inhibition	> 50%

Values compiled from ChEMBL document CHEMBL4828761.
